- Species on record: Rattus norvegicus
- test: Open TG-GATES - Regimen: Daily Repeat
- Assay type: toxicity, organism-based, Sprague-Dawley
- Parameters: regimen Daily Repeat, gender Male, age 6 weeks
- conditionDetails: in vivo, po, 0 mg/kg, 72 h, tissue Blood, route gavage, dose level Control, time 3 day
Hi there, I'd appreciate the recorded WBC for every entry that follows.

Example molecules with recorded WBC:
{"molecule": "Clc1ccccc1CN1CCc2sccc2C1 [TICLOPIDINE]", "WBC": "129 x10_2/uL"}
{"molecule": "CSc1ccc2c(c1)N(CCC1CCCCN1C)c1ccccc1S2 (stereo not given) [THIORIDAZINE]", "WBC": "120 x10_2/uL"}
{"molecule": "CCc1cc(C(N)=S)ccn1 [ETHIONAMIDE]", "WBC": "130.2 x10_2/uL"}

For each of the molecules below, state WBC.
1. O=C(O)c1cc(/N=N/c2ccc(S(=O)(=O)Nc3ccccn3)cc2)ccc1O [SULFASALAZINE]
2. O=C(O)c1cn(C2CC2)c2cc(N3CCNCC3)c(F)cc2c1=O [CIPROFLOXACIN]
3. NC(=O)N/N=C/c1ccc([N+](=O)[O-])o1 [NITROFURAZONE]
4. C[C@H](CS)C(=O)N1CCC[C@H]1C(=O)O [CAPTOPRIL]
5. Cn1c(=O)c2[nH]cnc2n(C)c1=O.O [THEOPHYLLINE]
6. COc1ccc(Cc2nccc3cc(OC)c(OC)cc23)cc1OC [PAPAVERINE]

Return:
["93.4 x10_2/uL", "105.1 x10_2/uL", "76.9 x10_2/uL", "119.1 x10_2/uL", "109 x10_2/uL", "105.4 x10_2/uL"]

For each of the molecules below, state WBC.
1. CC(=O)Oc1ccccc1C(=O)O [ASPIRIN]
2. CCCC(CCC)C(=O)O [VALPROIC ACID]

Return:
["98.5 x10_2/uL", "101 x10_2/uL"]

For each of the molecules below, state WBC.
1. CO[C@H]1/C=C/O[C@@]2(C)Oc3c(C)c(O)c4c(O)c(c(/C=N/N5CCN(C)CC5)c(O)c4c3C2=O)NC(=O)/C(C)=C\C=C\[C@H](C)[C@H](O)[C@@H](C)[C@@H](O)[C@@H](C)[C@H](OC(C)=O)[C@@H]1C [RIFAMPIN]
2. CN(C)CCC=C1c2ccccc2CCc2ccccc21 [AMITRIPTYLINE]
3. NC(=O)N1c2ccccc2C=Cc2ccccc21 [CARBAMAZEPINE]
4. COc1ccc2c(c1)c(CC(=O)O)c(C)n2C(=O)c1ccc(Cl)cc1 [INDOMETHACIN]

Return:
1: 129.1 x10_2/uL; 2: 71.8 x10_2/uL; 3: 95.6 x10_2/uL; 4: 117.2 x10_2/uL

====

- Species: Rattus norvegicus
- test: Open TG-GATES - Regimen: Single
- Assay type: toxicity, organism-based, Sprague-Dawley
- Parameters: regimen Single, gender Male, age 6 weeks
- conditionDetails: in vivo, po, 0 mg/kg, 6 h, tissue Plasma, route gavage, dose level Control
Classes are defined on DBIL with ranges range 1: < 0.008 mg/dL; range 2: ≥ 0.008 mg/dL and < 0.07 mg/dL; range 3: ≥ 0.07 mg/dL

Enquiry: Band assignment needed for NC(=O)N/N=C/c1ccc([N+](=O)[O-])o1 please.
Return: range 2

Enquiry: Band assignment needed for COc1ccc(Cc2nccc3cc(OC)c(OC)cc23)cc1OC please.
Return: range 1

Enquiry: Band assignment needed for NC(=O)N1c2ccccc2C=Cc2ccccc21 [CARBAMAZEPINE] please.
Return: range 3
